System: MOLT-4 leukemia
Assay: NCI-60 one-dose screen, 48 h (100 = growth as untreated, 0 = no growth, -100 = all killed)
Conditions: 10 µM unless noted
The panel holds about 83,000 compounds, 20% with a hit somewhere; the sample as a whole holds those more often. Activity calls are given as the source filed them. The calls were made as follows: active = growth percent below 10; inactive = the rest.
ASSAY ENDPOINT: growth

Study these solved cases before continuing.
CC(=O)O[C@H]1CC[C@@]2(C)C(=CC[C@@H]3[C@@H]2CC[C@]2(C)C(=O)N(O)C(=O)C[C@@H]32)C1 :: 79.5% (inactive)
COc1cc(-c2c(C#N)c(-c3cccs3)nc3c2c(-c2ccccc2)nn3-c2ccccc2)ccc1O :: 59.9% (inactive)
O=C(/C=C\c1ccc2c(c1)OCO2)/C=C/c1ccc2c(c1)OCO2 :: 35.2% (inactive)

Problem: # query: growth of entry N#CCCCCCn1c2ccccc2c2c3[nH]c(=O)[nH]c(=O)c3c3c4ccccc4n(CCCCCC#N)c3c21
Solution: 69.5% (inactive)

Problem: # query: growth of entry CC(Cc1ccco1)C(=O)NC(N)=O (stereo not given)
Solution: 98.8% (inactive)

Problem: # query: growth of entry O=C1c2cccc3cccc(c23)C(=O)N1CC#Cc1ccc2c3c(cccc13)C(=O)N(CCN1CCNCC1)C2=O
Solution: 6.74% (active)

Problem: # query: growth of entry N#C/C(=C\c1ccc(-c2ccc(Br)cc2)o1)c1nc(-c2ccco2)cs1
Solution: 94.2% (inactive)

Problem: # query: growth of entry C/C(=N\Nc1cc(C)c2ccccc2n1)c1ccccn1
Solution: -18.7% (active)
